tgt: human TNFRSF25 over-expressed on CHOK1 cells (cDNA sequence NP_683866) (human) (UniProt Q93038)
testDetails: flow cytometry competition (upper panel); CHOK1-TNFRSF25+ cells with antibody 30 min at 4 C, then biotinylated human TL1A-Fc at 156 nM, PE-streptavidin
recordedMetric: IC50
Please answer using the number first and the unit second.

Illustrative cases are given below, each with its answer.
>  <binder>
NH24-35 (antibody) (antibody, V domains shown) VH: EVQLVESGGGSVQPGGSLRLSCAASGFTFSSYGMSWIRQAPGKGLEWVSYISSSGGHTYYADSVKGRFTISRDNAKNSLYLQMNSLRAEDTAVYYCARYSGAFDHWGQGTLVTVSS VL: DIVMTQSPSSLSASVGDRVTITCQASQDITNYLSWYQQKPGKAPKLLINDASNLETGVPSRFSGSGSGTDFTFTISSLQPEDIATYYCQQYDTLPITFGQGTRLEIKR

>  <recordedMetric>
IC50

>  <measuredResult>
4 nM

$$$$
>  <binder>
NH24-72 (antibody, V domains shown) VH: EVQLVESGGGSVQPGGSLRLSCAASGFTFSSYGMNWIRQAPGKGLEWITYISSSGGHTYYADSVKGRFTISRDNAKNSLYLQMNSLRAEDTAVYYCARGQGPFEYWGQGTLVTVSS VL: DIVMTQSPSSLSASVGDRVTITCQASQDISNYLSWYQQKPGKAPKLLINDASNLETGVPSRFSGSGSGTDFTFTISSLQPEDIATYYCQQYDNLPITFGQGTRLEIKR

>  <recordedMetric>
IC50

>  <measuredResult>
8 nM

$$$$
>  <binder>
NH46 (whole antibody) (antibody, human IgG1, kappa, V domains shown) VH: QVQLVQSGSEVKKPGASVRVSCKVSGSTVKELSMHWVRQAPGKGLEWMGGYDPEDGESIFAQKFQGRVNMTEDRSTDTAYMELSSLRSEDTAVYYCATDLNWEDAFDVWGQGTMVTVSS VL: QSVLTQPPSVSAAPGQKVTISCSGSGSNIGNYYVAWYQQFPGTAPKLLIYDNNKRPSGIPDRFSGSKSGTSATLGITGLQTGDEADYYCGTWDTSLTAGDIYVFGTGTKVTVLR

>  <recordedMetric>
IC50

>  <measuredResult>
49 nM

$$$$

Kindly review the next binder as well.
Give the measured IC50 of NH24-162 (antibody, V domains shown) VH: EVQLVESGGGSVQPGGSLRLSCAASGFTFSSYGMSWVRQAPGKGLEWISYISSSGGHTYYADSVKGQFTISRDNAKNSLYLQMNSLRAEDTAVYYCARGSGSFDYWGQGTLVTVSS VL: DIVMTQSPSSLSASVGDRVTITCQASQDISNYLSWYQQKPGKAPKLLISDASNLETGVPSRFSGSGSGTDFTFTISSLQPEDIATYYCQQYDNLPITFGQGTRLEIKR .
49 nM

From: patent US12319742
